Kindly supply the reported Emax values for the records listed here.
TEST_SYSTEM: SIRT1 (Homo sapiens)
Sequence (Q96EB6 whole entry): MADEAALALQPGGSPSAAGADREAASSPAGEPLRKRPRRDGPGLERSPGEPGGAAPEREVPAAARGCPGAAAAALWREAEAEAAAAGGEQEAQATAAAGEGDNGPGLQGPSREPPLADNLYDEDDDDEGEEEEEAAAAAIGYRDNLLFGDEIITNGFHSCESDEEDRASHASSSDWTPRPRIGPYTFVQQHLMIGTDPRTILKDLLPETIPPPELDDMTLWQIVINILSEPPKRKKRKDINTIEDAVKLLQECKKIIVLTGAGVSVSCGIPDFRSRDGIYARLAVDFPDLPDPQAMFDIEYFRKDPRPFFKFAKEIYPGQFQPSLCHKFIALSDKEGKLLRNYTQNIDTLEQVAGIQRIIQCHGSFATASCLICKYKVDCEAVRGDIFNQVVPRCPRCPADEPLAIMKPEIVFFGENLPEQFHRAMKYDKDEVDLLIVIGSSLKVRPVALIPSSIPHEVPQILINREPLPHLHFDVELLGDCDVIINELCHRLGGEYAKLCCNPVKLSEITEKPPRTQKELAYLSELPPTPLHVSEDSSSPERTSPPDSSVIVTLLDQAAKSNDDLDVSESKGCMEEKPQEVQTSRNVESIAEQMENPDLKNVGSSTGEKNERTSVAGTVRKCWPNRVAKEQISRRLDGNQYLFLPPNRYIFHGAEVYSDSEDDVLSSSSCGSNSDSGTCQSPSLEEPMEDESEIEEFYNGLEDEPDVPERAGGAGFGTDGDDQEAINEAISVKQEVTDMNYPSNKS
TEST_PROTOCOL: Trp mass spectrometry assay of SIRT1 activity
Type: biochemical
CONDITION_PARAMETERS: percent maximum fold activation of SIRT1; Trp peptide substrate; read-out: Trp % Fold Act

### Prompt Determine its reported Emax: Cn1ccc(NC(=O)c2cnc3ccc(-c4ccccc4C(F)(F)F)nn23)n1
### Response < 350%

### Prompt Determine its reported Emax: O=C(Nc1cnc2ccc(-c3ccccc3C(F)(F)F)nn12)c1nccs1
### Response < 350%

### Prompt Determine its reported Emax: O=C(Nc1ccncc1)c1cnc2ccc(-c3cccc(Cl)c3F)nn12
### Response < 350%

### Prompt Determine its reported Emax: O=C(Nc1ccc(F)cn1)c1cnc2ccc(-c3ccccc3C(F)(F)F)nn12
### Response < 350%

### Prompt Determine its reported Emax: O=C(Nc1nc(CN2CCOCC2)cs1)c1cnc2ccc(-c3ccccc3C(F)(F)F)nn12
### Response < 350%

### Prompt Determine its reported Emax: O=C(Nc1cccc(CN2CCOCC2)n1)c1cnc2ccc(-c3cccc(Cl)c3)nn12
### Response < 350%

### Prompt Determine its reported Emax: O=C(Nc1ccnc(N2CCC2)c1)c1cnc2ccc(-c3ccccc3F)nn12
### Response < 350%

### Prompt Determine its reported Emax: O=C(Nc1cc(-c2cnco2)ccn1)c1cnc2ccc(N3CCCC3C(F)(F)F)nn12 (stereo not shown)
### Response ≥ 350%

### Prompt Determine its reported Emax: O=C(Nc1cnc2ccc(-c3ccccc3C(F)(F)F)nn12)c1cncc(N2CCOCC2)n1
### Response ≥ 350%

### Prompt Determine its reported Emax: Cc1ncccc1-c1ccc2ncc(C(=O)Nc3ccnc(N4CCCC4)c3)n2n1
### Response < 350%

### Prompt Determine its reported Emax: O=C(Nc1ncc(CN2CCOCC2)s1)c1cnc2ccc(-c3ccccc3C(F)(F)F)nn12
### Response < 350%

### Prompt Determine its reported Emax: O=C(Nc1cccc(CN2CCOCC2)n1)c1cnc2ccc(-c3ccccc3C(F)F)nn12
### Response < 350%

### Prompt Determine its reported Emax: Cc1nc(NC(=O)c2cnn3ccc(N4CCC[C@H]4C(F)(F)F)nc23)sc1C
### Response ≥ 350%

### Prompt Determine its reported Emax: O=C(Nc1cccc(N2CCOCC2)n1)c1cnc2ccc(-c3ccccc3F)nn12
### Response < 350%

### Prompt Determine its reported Emax: O=C(Nc1ccnc(CN2CCOCC2)n1)c1cnc2ccc(-c3ccccc3C(F)F)nn12
### Response < 350%

### Prompt Determine its reported Emax: Cc1noc(C)c1-c1ccc2ncc(C(=O)Nc3cccc(N4CCOCC4)n3)n2n1
### Response < 350%

### Prompt Determine its reported Emax: O=C(Nc1cncc(F)c1)c1cnn2ccc(N3CCC(C(F)(F)F)C3)nc12 (stereo not shown)
### Response ≥ 350%

### Prompt Determine its reported Emax: Cc1cncc(NC(=O)c2cnn3ccc(N4CCC[C@H]4C(F)(F)F)nc23)c1
### Response ≥ 350%

### Prompt Determine its reported Emax: O=C(Nc1ccnc(N2CCOCC2)c1)c1nnc2ccc(-c3ccccc3C(F)F)nn12
### Response < 350%

### Prompt Determine its reported Emax: Cc1cccc(NC(=O)c2cnc3ccc(-c4ccccc4C(F)(F)F)nn23)n1
### Response ≥ 350%

### Prompt Determine its reported Emax: O=C(Nc1cccnc1)c1cnc2ccc(-c3cccc(Cl)c3F)nn12
### Response < 350%

### Prompt Determine its reported Emax: O=C(Nc1cccnn1)c1cnn2ccc(N3CCCCC3C(F)(F)F)nc12 (stereo not shown)
### Response ≥ 350%

### Prompt Determine its reported Emax: C[C@H]1CCCN1c1ccc2ncc(C(=O)Nc3ccccn3)n2n1
### Response ≥ 350%

### Prompt Determine its reported Emax: Cc1cncc(NC(=O)c2cnn3ccc(N4CCCC4C)nc23)c1 (stereo not shown)
### Response < 350%

### Prompt Determine its reported Emax: COc1nccc(NC(=O)c2cnc3ccc(-c4ccccc4C(F)(F)F)nn23)n1
### Response ≥ 350%

### Prompt Determine its reported Emax: O=C(Nc1cccc(CN2CCOCC2)n1)c1cnc2ccc(-c3cccc(F)c3F)nn12
### Response < 350%

### Prompt Determine its reported Emax: CN(C)c1cccc(NC(=O)c2cnc3ccc(-c4ccccc4C(F)(F)F)nn23)n1
### Response < 350%

### Prompt Determine its reported Emax: O=C(Nc1cccc(-c2cnco2)n1)c1cnn2ccc(N3CCC(C(F)(F)F)CC3)nc12
### Response ≥ 350%

### Prompt Determine its reported Emax: CN(C)CCn1cc(NC(=O)c2cnc3ccc(-c4ccccc4C(F)(F)F)nn23)cn1
### Response < 350%

### Prompt Determine its reported Emax: O=C(Nc1cnc2ccc(-c3ccccc3C(F)(F)F)nn12)c1cccnc1
### Response < 350%

### Prompt Determine its reported Emax: Cc1nc(NC(=O)c2c(C)nn3ccc(N4CCC[C@@H]4C(F)(F)F)nc23)sc1C
### Response ≥ 350%

### Prompt Determine its reported Emax: Cc1nn2ccc(N3CCC[C@H]3C(F)(F)F)nc2c1C(=O)Nc1ccccn1
### Response ≥ 350%

### Prompt Determine its reported Emax: O=C(Nc1ccnc(CN2CCOCC2)n1)c1cnc2ccc(-c3ccccc3C(F)(F)F)nn12
### Response < 350%

### Prompt Determine its reported Emax: Cc1nn2ccc(N3CCC[C@H]3C(F)(F)F)nc2c1C(=O)Nc1cccnn1
### Response ≥ 350%
